// IC50 lookup, one value per entry
# Test system: NB10;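 also: growth inhibition of NB10 cells, read out by a cell viability assay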
# PROTOCOL: cells
# Format: functional, cell-based
# MEASUREMENT SETUP: Homo sapiens
# Description: SANGER: Inhibition of human NB10 cell growth in a cell viability assay.

C/C=C(/C)C(=O)O[C@H]1C(C)=C2[C@H]([C@@H]1OC(=O)CCCCCCC)[C@@](C)(OC(C)=O)C[C@H](OC(=O)CCC)[C@@]1(O)[C@H]2OC(=O)[C@@]1(C)O ... 0.0632 µM
CO[C@@]12[C@H](COC(N)=O)C3=C(C(=O)C(C)=C(N)C3=O)N1C[C@@H]1N[C@@H]12 ... 0.0817 µM
CCCS(=O)(=O)Nc1ccc(F)c(C(=O)c2c[nH]c3ncc(Cl)cc23)c1F ... > 10 µM
CCNc1cc(N[C@H]2CC[C@@H](O)CC2)nc(Nc2ccc3c(ccn3Cc3ccccc3)c2)n1 ... > 5.12 µM
Cn1cc(/C=C2\C(=O)Nc3cccnc32)c2ccccc21 ... > 2 µM

Requested read-out: IC50. Entry: `CC(=O)c1c(C)c2cnc(Nc3ccc(N4CCNCC4)cn3)nc2n(C2CCCC2)c1=O` 0.599 µM

What do you have for COc1cc(C)c(Sc2cnc(NC(=O)c3ccc(CNC(C)C(C)(C)C)cc3)s2)cc1C(=O)N1CCN(C(C)=O)CC1 (centres undefined) ? > 10.2 µM

Now the same for `NC(=O)c1ncn([C@@H]2O[C@H](COP(=O)(O)O)[C@@H](O)[C@H]2O)c1N` > 2000 µM

Input `C[C@]1(c2nc3c(C(N)=O)cccc3[nH]2)CCCN1` > 5 µM

###

# Tested on: COLO-684
# PROTOCOL: cells
# Format: functional, cell-based
# MEASUREMENT SETUP: Homo sapiens
# Description: SANGER: Inhibition of human COLO-684 cell growth in a cell viability assay.
Listing of recorded IC50 by entry.

CC(=O)c1c(C)c2cnc(Nc3ccc(N4CCNCC4)cn3)nc2n(C2CCCC2)c1=O ... > 4000 nM
Fc1cc(-c2cc[nH]/c(=N/c3ccc(-n4cnc(N5CCOCC5)n4)cc3)n2)cc(N2CCOCC2)c1 ... 543 nM
Cc1ccc(NC(=O)c2cccc(C(C)(C)C#N)c2)cc1Nc1ccc2ncn(C)c(=O)c2c1 ... > 4000 nM
C/C(O)=C(\C#N)C(=O)Nc1cc(Br)ccc1Br ... > 16000 nM
CCn1c(-c2nonc2N)nc2cnc(Oc3cccc(NC(=O)c4ccc(OCCN5CCOCC5)cc4)c3)cc21 [GSK-269962A] ... > 2500 nM
CC[C@]1(O)C[C@@H]2CN(CCc3c([nH]c4ccccc34)[C@@](C(=O)OC)(c3cc4c(cc3OC)N(C)[C@H]3[C@@](O)(C(=O)OC)[C@H](OC(C)=O)[C@]5(CC)C=CCN6CC[C@]43[C@@H]65)C2)C1 ... 7.67 nM
COc1cc(C)c(Sc2cnc(NC(=O)c3ccc(CNC(C)C(C)(C)C)cc3)s2)cc1C(=O)N1CCN(C(C)=O)CC1 (stereo not drawn) ... > 10200 nM

Fill in: IC50 of `CC[C@@]1(O)C(=O)OCc2c1cc1n(c2=O)Cc2cc3ccccc3nc2-1` is ___ 13.8 nM

###

# System: RERF-LC-MS
# PROTOCOL: cells
# Format: functional, cell-based
# MEASUREMENT SETUP: Homo sapiens
# Description: SANGER: Inhibition of human RERF-LC-MS cell growth in a cell viability assay.
ENDPOINT: pIC50
The value called pIC50 is obtained by taking minus log10 of the concentration in mol/L.

A selection of reference data follows.
CO[C@@]12[C@H](COC(N)=O)C3=C(C(=O)C(C)=C(N)C3=O)N1C[C@@H]1N[C@@H]12 ... 5.99
Cn1c(=O)n(-c2ccc(C(C)(C)C#N)cc2)c2c3cc(-c4cnc5ccccc5c4)ccc3ncc21 ... 6.91
Fc1cc(-c2cc[nH]/c(=N/c3ccc(-n4cnc(N5CCOCC5)n4)cc3)n2)cc(N2CCOCC2)c1 ... 6.06

We now examine a further molecule.
Param item = `CC(C)=CC[C@@H](O)C1=CC(=O)c2c(O)ccc(O)c2C1=O` ; retrieve measured pIC50. 5.38
